Listed below: viability, T/C values for each entry.
System: 171881-019-R-J1-PDC multicell spheroid viability
measurement_description: Anticancer human tumor 171881-019-R-J1-PDC patient-derived invasive breast carcinoma cell line growth inhibition [IpAb]
conditions: second compound 0.316 µM; first compound 0.316 µM; active compounds read low
measured_parameter: viability, T/C (%)

C=CCn1c(=O)c2cnc(Nc3ccc(N4CCN(C)CC4)cc3)nc2n1-c1cccc(C(C)(C)O)n1 + CC(C)NCC(C(=O)N1CCN(c2ncnc3c2C(C)CC3O)CC1)c1ccc(Cl)cc1 | 54
COc1c(OCCCN2CCOCC2)ccc2c3n(c(=NC(=O)c4cnc(N)nc4)nc12)CCN3 + CCN1CCN(Cc2ccc(Nc3ncc(F)c(-c4cc(F)c5nc(C)n(C(C)C)c5c4)n3)nc2)CC1 | 1.95
Cn1ncc(Cl)c1-c1cc(C(=O)NC(CN)Cc2cccc(F)c2)sc1Cl (stereo not given) + CC(C)NCC(C(=O)N1CCN(c2ncnc3c2C(C)CC3O)CC1)c1ccc(Cl)cc1 | 22.6
CC1(C)CCC(CN2CCN(c3ccc(C(=O)NS(=O)(=O)c4ccc(NCC5CCOCC5)c([N+](=O)[O-])c4)c(Oc4cnc5[nH]ccc5c4)c3)CC2)=C(c2ccc(Cl)cc2)C1 + CCN1CCN(Cc2ccc(Nc3ncc(F)c(-c4cc(F)c5nc(C)n(C(C)C)c5c4)n3)nc2)CC1 | 109
C=CCn1c(=O)c2cnc(Nc3ccc(N4CCN(C)CC4)cc3)nc2n1-c1cccc(C(C)(C)O)n1 + CCN1CCN(Cc2ccc(Nc3ncc(F)c(-c4cc(F)c5nc(C)n(C(C)C)c5c4)n3)nc2)CC1 | 134

* * *

Test system: 171881-019-R-J1-PDC multicell spheroid viability
measurement_description: Anticancer human tumor 171881-019-R-J1-PDC cell line growth inhibition [IpAb];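 further: spheroids exposed to the agents for seven days before readout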
conditions: second compound 0.0316 µM; first compound 0.0316 µM; active compounds read low
compounds and their reported viability, T/C
measured_parameter: viability, T/C (%)

Cn1ncnc1[C@H]1c2n[nH]c(=O)c3cc(F)cc(c23)N[C@@H]1c1ccc(F)cc1 + CCN1CCN(Cc2ccc(Nc3ncc(F)c(-c4cc(F)c5nc(C)n(C(C)C)c5c4)n3)nc2)CC1 | 104
Cn1ncc(Cl)c1-c1cc(C(=O)NC(CN)Cc2cccc(F)c2)sc1Cl (stereo not given) + CCN1CCN(Cc2ccc(Nc3ncc(F)c(-c4cc(F)c5nc(C)n(C(C)C)c5c4)n3)nc2)CC1 | 116
CC1(C)CCC(CN2CCN(c3ccc(C(=O)NS(=O)(=O)c4ccc(NCC5CCOCC5)c([N+](=O)[O-])c4)c(Oc4cnc5[nH]ccc5c4)c3)CC2)=C(c2ccc(Cl)cc2)C1 + CCN1CCN(Cc2ccc(Nc3ncc(F)c(-c4cc(F)c5nc(C)n(C(C)C)c5c4)n3)nc2)CC1 | 89.7
COc1c(OCCCN2CCOCC2)ccc2c3n(c(=NC(=O)c4cnc(N)nc4)nc12)CCN3 + CCN1CCN(Cc2ccc(Nc3ncc(F)c(-c4cc(F)c5nc(C)n(C(C)C)c5c4)n3)nc2)CC1 | 38.7
Cc1nc(NC(=O)N2CCCC2C(N)=O)sc1-c1ccnc(C(C)(C)C(F)(F)F)c1 (stereo not given) + CCN1CCN(Cc2ccc(Nc3ncc(F)c(-c4cc(F)c5nc(C)n(C(C)C)c5c4)n3)nc2)CC1 | 118
CC(C)n1nc(-c2ccc3oc(N)nc3c2)c2c(N)ncnc21 + CCN1CCN(Cc2ccc(Nc3ncc(F)c(-c4cc(F)c5nc(C)n(C(C)C)c5c4)n3)nc2)CC1 | 5.1
Cn1nccc1Nc1nccc(-c2ccn(C(CO)c3ccc(Cl)c(F)c3)c(=O)c2)n1 (stereo not given) + CCN1CCN(Cc2ccc(Nc3ncc(F)c(-c4cc(F)c5nc(C)n(C(C)C)c5c4)n3)nc2)CC1 | 132
CCCS(=O)(=O)Nc1ccc(F)c(C(=O)c2c[nH]c3ncc(-c4ccc(Cl)cc4)cc23)c1F + CCN1CCN(Cc2ccc(Nc3ncc(F)c(-c4cc(F)c5nc(C)n(C(C)C)c5c4)n3)nc2)CC1 | 96.1
C=CC(=O)N1CCN(c2nc(=O)n(-c3c(C)ccnc3C(C)C)c3nc(-c4c(O)cccc4F)c(F)cc23)C(C)C1 (stereo not given) + CCN1CCN(Cc2ccc(Nc3ncc(F)c(-c4cc(F)c5nc(C)n(C(C)C)c5c4)n3)nc2)CC1 | 99.1
C=CCn1c(=O)c2cnc(Nc3ccc(N4CCN(C)CC4)cc3)nc2n1-c1cccc(C(C)(C)O)n1 + CCN1CCN(Cc2ccc(Nc3ncc(F)c(-c4cc(F)c5nc(C)n(C(C)C)c5c4)n3)nc2)CC1 | 116

* * *

Test system: 171881-019-R-J1-PDC multicell spheroid viability
measurement_description: Anticancer human tumor 171881-019-R-J1-PDC cell line growth inhibition [IpAb];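 further: spheroids exposed to the agents for seven days before readout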
conditions: second compound 1 µM; first compound 0.000316 µM; active compounds read low
Protocol: Combinatorial screen of targeted agents with ipatasertib and abemaciclib in multi-cell type tumor spheroids […] Compounds. […] If the clinical Cmax for an agent had not been determined, the highest concentration tested was 10 microM. NCI60 Cell Culture. […] The optimal seeding densities for each of the cell lines at each time point assessed were determined prior to performing the concentration response studies. […]
measured_parameter: viability, T/C (%)

CC(C)n1nc(-c2ccc3oc(N)nc3c2)c2c(N)ncnc21 + CCN1CCN(Cc2ccc(Nc3ncc(F)c(-c4cc(F)c5nc(C)n(C(C)C)c5c4)n3)nc2)CC1 | 140
Cn1ncnc1[C@H]1c2n[nH]c(=O)c3cc(F)cc(c23)N[C@@H]1c1ccc(F)cc1 + CC(C)NCC(C(=O)N1CCN(c2ncnc3c2C(C)CC3O)CC1)c1ccc(Cl)cc1 | 27.4
CC(C)n1nc(-c2ccc3oc(N)nc3c2)c2c(N)ncnc21 + CC(C)NCC(C(=O)N1CCN(c2ncnc3c2C(C)CC3O)CC1)c1ccc(Cl)cc1 | 20
Cn1ncnc1[C@H]1c2n[nH]c(=O)c3cc(F)cc(c23)N[C@@H]1c1ccc(F)cc1 + CCN1CCN(Cc2ccc(Nc3ncc(F)c(-c4cc(F)c5nc(C)n(C(C)C)c5c4)n3)nc2)CC1 | 143

* * *

System: 171881-019-R-J1-PDC multicell spheroid viability
measurement_description: Anticancer human tumor 171881-019-R-J1-PDC cell line growth inhibition [IpAb];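 further: spheroids exposed to the agents for seven days before readout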
conditions: second compound 0.0316 µM; first compound 0.1 µM; active compounds read low
Reported viability, T/C values for a set of molecules
measured_parameter: viability, T/C

CC(C)n1nc(-c2ccc3oc(N)nc3c2)c2c(N)ncnc21 + CCN1CCN(Cc2ccc(Nc3ncc(F)c(-c4cc(F)c5nc(C)n(C(C)C)c5c4)n3)nc2)CC1 | 2.53%
Cc1nc(NC(=O)N2CCCC2C(N)=O)sc1-c1ccnc(C(C)(C)C(F)(F)F)c1 (stereo not given) + CCN1CCN(Cc2ccc(Nc3ncc(F)c(-c4cc(F)c5nc(C)n(C(C)C)c5c4)n3)nc2)CC1 | 108%
Cn1ncc(Cl)c1-c1cc(C(=O)NC(CN)Cc2cccc(F)c2)sc1Cl (stereo not given) + CCN1CCN(Cc2ccc(Nc3ncc(F)c(-c4cc(F)c5nc(C)n(C(C)C)c5c4)n3)nc2)CC1 | 67.4%
Cn1ncnc1[C@H]1c2n[nH]c(=O)c3cc(F)cc(c23)N[C@@H]1c1ccc(F)cc1 + CCN1CCN(Cc2ccc(Nc3ncc(F)c(-c4cc(F)c5nc(C)n(C(C)C)c5c4)n3)nc2)CC1 | 113%
COc1c(OCCCN2CCOCC2)ccc2c3n(c(=NC(=O)c4cnc(N)nc4)nc12)CCN3 + CCN1CCN(Cc2ccc(Nc3ncc(F)c(-c4cc(F)c5nc(C)n(C(C)C)c5c4)n3)nc2)CC1 | 4.99%
Cn1nccc1Nc1nccc(-c2ccn(C(CO)c3ccc(Cl)c(F)c3)c(=O)c2)n1 (stereo not given) + CCN1CCN(Cc2ccc(Nc3ncc(F)c(-c4cc(F)c5nc(C)n(C(C)C)c5c4)n3)nc2)CC1 | 122%
C=CCn1c(=O)c2cnc(Nc3ccc(N4CCN(C)CC4)cc3)nc2n1-c1cccc(C(C)(C)O)n1 + CCN1CCN(Cc2ccc(Nc3ncc(F)c(-c4cc(F)c5nc(C)n(C(C)C)c5c4)n3)nc2)CC1 | 97.3%
CC1(C)CCC(CN2CCN(c3ccc(C(=O)NS(=O)(=O)c4ccc(NCC5CCOCC5)c([N+](=O)[O-])c4)c(Oc4cnc5[nH]ccc5c4)c3)CC2)=C(c2ccc(Cl)cc2)C1 + CCN1CCN(Cc2ccc(Nc3ncc(F)c(-c4cc(F)c5nc(C)n(C(C)C)c5c4)n3)nc2)CC1 | 86.7%
C=CC(=O)N1CCN(c2nc(=O)n(-c3c(C)ccnc3C(C)C)c3nc(-c4c(O)cccc4F)c(F)cc23)C(C)C1 (stereo not given) + CCN1CCN(Cc2ccc(Nc3ncc(F)c(-c4cc(F)c5nc(C)n(C(C)C)c5c4)n3)nc2)CC1 | 94.1%
CCCS(=O)(=O)Nc1ccc(F)c(C(=O)c2c[nH]c3ncc(-c4ccc(Cl)cc4)cc23)c1F + CCN1CCN(Cc2ccc(Nc3ncc(F)c(-c4cc(F)c5nc(C)n(C(C)C)c5c4)n3)nc2)CC1 | 88.5%
